- ASSAYED_TARGET: UniProtKB P28845
- Sequence (P28845 whole entry): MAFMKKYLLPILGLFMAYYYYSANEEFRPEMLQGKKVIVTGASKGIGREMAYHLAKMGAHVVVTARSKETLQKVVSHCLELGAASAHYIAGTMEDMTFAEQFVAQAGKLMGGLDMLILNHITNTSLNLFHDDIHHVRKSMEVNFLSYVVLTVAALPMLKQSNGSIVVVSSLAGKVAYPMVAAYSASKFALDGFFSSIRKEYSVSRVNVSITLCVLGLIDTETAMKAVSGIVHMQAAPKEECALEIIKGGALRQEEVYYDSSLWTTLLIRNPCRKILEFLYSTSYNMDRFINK
- TEST_DETAILS: biochemical
- TEST_SETTINGS: Biological Test Example 1 IC50 (nM)
Classify on IC50 using LOW (below 1 nM), MEDIUM (1 nM to below 3 nM), HIGH (3 nM or more)

{"COMPOUND": "Cc1cc(-c2ccc([C@H](C)N3CC[C@](CCCO)(c4ccc(F)cc4)OC3=O)cc2)nc(C)n1", "DISCRETE_LABEL": "HIGH"}
{"COMPOUND": "Cc1cc(-c2ccc([C@H](C)N3CC[C@@](C)(c4ccc(F)cc4)OC3=O)cc2)ccn1 (single isomer, unassigned)", "DISCRETE_LABEL": "HIGH"}
{"COMPOUND": "C[C@@H](c1ccc(-c2ccc(C(N)=O)cn2)cc1)N1CC[C@](CCCO)(c2ccccc2)OC1=O", "DISCRETE_LABEL": "MEDIUM"}
{"COMPOUND": "COc1ccc(-c2ccc([C@H](C)N3CC[C@](CCC(N)=O)(c4ccc(F)cc4)OC3=O)cc2)cn1", "DISCRETE_LABEL": "MEDIUM"}
{"COMPOUND": "C[C@@H](c1ccc(-c2cncc(F)c2)cc1)N1CC[C@](CCC(=O)O)(c2ccc(F)cc2)OC1=O", "DISCRETE_LABEL": "HIGH"}
{"COMPOUND": "COc1cc(-c2ccc([C@H](C)N3CC[C@](CCCO)(c4ccc(F)cc4)OC3=O)cc2)ccn1", "DISCRETE_LABEL": "LOW"}
{"COMPOUND": "C[C@@H](c1ccc(-c2ccc[n+]([O-])c2)cc1)N1CC[C@](CCC(N)=O)(c2ccccc2)OC1=O", "DISCRETE_LABEL": "HIGH"}
{"COMPOUND": "C[C@@H](c1ccc(-c2cncnc2)cc1)N1CC[C@](CCCO)(c2ccc(F)cc2)OC1=O", "DISCRETE_LABEL": "HIGH"}
{"COMPOUND": "C[C@@H](c1ccc(-c2ccc(C3CC3)nn2)cc1)N1CC[C@](CC(C)(C)O)(c2ccccc2)OC1=O", "DISCRETE_LABEL": "LOW"}
{"COMPOUND": "C[C@@H](c1ccc(-c2ccc(C#N)cn2)cc1)N1CC[C@](CCCO)(c2ccccc2)OC1=O", "DISCRETE_LABEL": "LOW"}
{"COMPOUND": "C[C@@H](c1ccc(-c2nc(C(=O)NC(C)(C)C)cs2)cc1)N1CC[C@](CC(C)(C)O)(c2ccccc2)OC1=O", "DISCRETE_LABEL": "MEDIUM"}
{"COMPOUND": "C[C@@H](c1ccc(-c2cccnc2)cc1)N1CC[C@](CCC(N)=O)(c2ccccc2)OC1=O", "DISCRETE_LABEL": "MEDIUM"}
{"COMPOUND": "Cc1cc(-c2ccc([C@H](C)N3CC[C@](CC(C)(C)O)(c4ccc(F)cc4)OC3=O)cc2)ccn1", "DISCRETE_LABEL": "LOW"}
{"COMPOUND": "C[C@@H](c1ccc(-c2ccccn2)cc1)N1CC[C@](CCCNS(C)(=O)=O)(c2ccccc2)OC1=O", "DISCRETE_LABEL": "LOW"}
{"COMPOUND": "Cc1cc(-c2ccc([C@H](C)N3CC[C@](CCCO)(c4ccccc4)OC3=O)cc2)cc(C)[n+]1[O-]", "DISCRETE_LABEL": "HIGH"}
{"COMPOUND": "Cc1nc(-c2ccc([C@H](C)N3CC[C@](CC(C)(C)O)(c4ccccc4)OC3=O)cc2)ccc1C#N", "DISCRETE_LABEL": "LOW"}
{"COMPOUND": "Cc1cc(-c2ccc([C@H](C)N3CC[C@](C)(c4ccc(F)cc4)OC3=O)cc2)ccn1 (single isomer, unassigned)", "DISCRETE_LABEL": "HIGH"}
{"COMPOUND": "CC(=O)N(C)CCC[C@]1(c2ccccc2)CCN([C@@H](C)c2ccc(-c3ccnc(C)c3)cc2)C(=O)O1", "DISCRETE_LABEL": "HIGH"}
{"COMPOUND": "C[C@@H](c1ccc(-c2ncc(F)cn2)cc1)N1CC[C@](CC(C)(C)O)(c2ccccc2)OC1=O", "DISCRETE_LABEL": "MEDIUM"}
{"COMPOUND": "Cc1cc(-c2ccc([C@H](C)N3CC[C@](CCCO)(c4ccc(F)cc4)OC3=O)cc2)cc(C)n1", "DISCRETE_LABEL": "LOW"}
{"COMPOUND": "C[C@@H](c1ccc(-c2cnc(C(=O)NC(C)(C)C)nc2)cc1)N1CC[C@](CC(C)(C)O)(c2ccccc2)OC1=O", "DISCRETE_LABEL": "MEDIUM"}
{"COMPOUND": "Cc1nc(C)c(-c2ccc([C@H](C)N3CC[C@](CCC(N)=O)(c4ccc(F)cc4)OC3=O)cc2)s1", "DISCRETE_LABEL": "HIGH"}
{"COMPOUND": "C[C@@H](c1ccc(-c2ccc(C#N)cn2)cc1)N1CC[C@](CC(C)(C)O)(c2ccc(F)cc2)OC1=O", "DISCRETE_LABEL": "LOW"}
{"COMPOUND": "Cc1cc(-c2ccc([C@H](C)N3CC[C@](CCCN4CCCS4(=O)=O)(c4ccccc4)OC3=O)cc2)ccn1", "DISCRETE_LABEL": "HIGH"}
{"COMPOUND": "C[C@@H](c1ccc(-c2ccccn2)cc1)N1CC[C@](CCCNS(C)(=O)=O)(c2ccc(F)cc2)OC1=O", "DISCRETE_LABEL": "LOW"}

Source: patent US8569292B2
